Each entry below lists one item and its recorded Activity value.
Test system: Schistosoma mansoni
Test: Antiparasitic activity against schistosomula stage of Schistosoma mansoni assessed as parasite viability at 10 uM after 48 hrs by Alamar Blue assay relative to control
Assay type: functional
QUANTITY: Activity (%)

{"QUERY_SMILES": "O=C(NO)c1ccc(Cl)c(NC(=O)c2ccccc2)c1", "MEASURED_TARGET": "Schistosoma mansoni", "QUANTITY": "Activity", "MEASUREMENT_UNIT": "%", "NUMERIC_RESULT": 84.7}
{"QUERY_SMILES": "CN(C)c1cccc(C(=O)NO)c1", "MEASURED_TARGET": "Schistosoma mansoni", "QUANTITY": "Activity", "MEASUREMENT_UNIT": "%", "NUMERIC_RESULT": 92.6}
{"QUERY_SMILES": "O=C(NO)c1ccc(Br)c(NC(=O)c2ccccc2)c1", "MEASURED_TARGET": "Schistosoma mansoni", "QUANTITY": "Activity", "MEASUREMENT_UNIT": "%", "NUMERIC_RESULT": 70.8}
{"QUERY_SMILES": "O=C(NO)c1ccc(Cl)c(NC(=O)c2cccc(Oc3ccccc3)c2)c1", "MEASURED_TARGET": "Schistosoma mansoni", "QUANTITY": "Activity", "MEASUREMENT_UNIT": "%", "NUMERIC_RESULT": 62.9}
{"QUERY_SMILES": "COc1ccc(C(=O)NO)cc1NC(=O)c1ccccc1", "MEASURED_TARGET": "Schistosoma mansoni", "QUANTITY": "Activity", "MEASUREMENT_UNIT": "%", "NUMERIC_RESULT": 77.4}
{"QUERY_SMILES": "CCOc1ccc(C(=O)NO)cc1NC(=O)c1ccccc1", "MEASURED_TARGET": "Schistosoma mansoni", "QUANTITY": "Activity", "MEASUREMENT_UNIT": "%", "NUMERIC_RESULT": 89.7}
{"QUERY_SMILES": "Cc1ccc(C(=O)NO)cc1NC1CCCCC1", "MEASURED_TARGET": "Schistosoma mansoni", "QUANTITY": "Activity", "MEASUREMENT_UNIT": "%", "NUMERIC_RESULT": 84.3}
{"QUERY_SMILES": "O=C(NO)c1cccc(NC(=O)c2ccccc2)c1", "MEASURED_TARGET": "Schistosoma mansoni", "QUANTITY": "Activity", "MEASUREMENT_UNIT": "%", "NUMERIC_RESULT": 79.2}
{"QUERY_SMILES": "COc1ccc(Cn2ccc3ccc(C(=O)NO)cc32)cc1", "MEASURED_TARGET": "Schistosoma mansoni", "QUANTITY": "Activity", "MEASUREMENT_UNIT": "%", "NUMERIC_RESULT": 70.6}
{"QUERY_SMILES": "Cc1ccc(C(=O)NO)cc1NC(=O)c1ccc2ccccc2n1", "MEASURED_TARGET": "Schistosoma mansoni", "QUANTITY": "Activity", "MEASUREMENT_UNIT": "%", "NUMERIC_RESULT": 74.9}
{"QUERY_SMILES": "Cc1ccc(C(=O)NO)cc1NC(=O)c1ccccc1", "MEASURED_TARGET": "Schistosoma mansoni", "QUANTITY": "Activity", "MEASUREMENT_UNIT": "%", "NUMERIC_RESULT": 82.9}
{"QUERY_SMILES": "O=C(NO)c1ccc(Cl)c(NC(=O)c2ccc([N+](=O)[O-])cc2)c1", "MEASURED_TARGET": "Schistosoma mansoni", "QUANTITY": "Activity", "MEASUREMENT_UNIT": "%", "NUMERIC_RESULT": 85.3}
{"QUERY_SMILES": "O=C(NO)c1ccc(F)c(NC(=O)c2ccccc2)c1", "MEASURED_TARGET": "Schistosoma mansoni", "QUANTITY": "Activity", "MEASUREMENT_UNIT": "%", "NUMERIC_RESULT": 82}
{"QUERY_SMILES": "COc1ccc(C(=O)Nc2cc(C(=O)NO)ccc2OC)cc1", "MEASURED_TARGET": "Schistosoma mansoni", "QUANTITY": "Activity", "MEASUREMENT_UNIT": "%", "NUMERIC_RESULT": 74.6}
{"QUERY_SMILES": "COc1ccc(C(=O)NO)cc1NC(=O)c1ccc(-c2ccccc2)cc1", "MEASURED_TARGET": "Schistosoma mansoni", "QUANTITY": "Activity", "MEASUREMENT_UNIT": "%", "NUMERIC_RESULT": 64.8}
{"QUERY_SMILES": "O=C(NO)c1ccc(Cl)c(NC(=O)c2cccc(OCc3ccccc3)c2)c1", "MEASURED_TARGET": "Schistosoma mansoni", "QUANTITY": "Activity", "MEASUREMENT_UNIT": "%", "NUMERIC_RESULT": 73.8}
{"QUERY_SMILES": "CCOc1ccc(C(=O)NO)cc1NC(=O)c1ccc(-c2ccccc2)cc1", "MEASURED_TARGET": "Schistosoma mansoni", "QUANTITY": "Activity", "MEASUREMENT_UNIT": "%", "NUMERIC_RESULT": 77.9}
{"QUERY_SMILES": "CC(C)Oc1ccc(C(=O)NO)cc1NC(=O)c1ccccc1", "MEASURED_TARGET": "Schistosoma mansoni", "QUANTITY": "Activity", "MEASUREMENT_UNIT": "%", "NUMERIC_RESULT": 75}
{"QUERY_SMILES": "COc1ccc(C(=O)NO)cc1NC(=O)Cc1ccccc1", "MEASURED_TARGET": "Schistosoma mansoni", "QUANTITY": "Activity", "MEASUREMENT_UNIT": "%", "NUMERIC_RESULT": 83.3}
{"QUERY_SMILES": "COc1ccc(C(=O)NO)cc1NC(=O)c1ccc(Cl)cc1Cl", "MEASURED_TARGET": "Schistosoma mansoni", "QUANTITY": "Activity", "MEASUREMENT_UNIT": "%", "NUMERIC_RESULT": 77.8}
{"QUERY_SMILES": "COc1ccc(C(=O)NO)cc1S(=O)(=O)Nc1ccc(C)cc1", "MEASURED_TARGET": "Schistosoma mansoni", "QUANTITY": "Activity", "MEASUREMENT_UNIT": "%", "NUMERIC_RESULT": 77.7}
{"QUERY_SMILES": "O=C(NO)c1cccc(NC2CCCCC2)c1", "MEASURED_TARGET": "Schistosoma mansoni", "QUANTITY": "Activity", "MEASUREMENT_UNIT": "%", "NUMERIC_RESULT": 82.7}
{"QUERY_SMILES": "O=C(NO)c1ccc(Cl)c(NC(=O)c2ccc(Cl)cc2)c1", "MEASURED_TARGET": "Schistosoma mansoni", "QUANTITY": "Activity", "MEASUREMENT_UNIT": "%", "NUMERIC_RESULT": 71.8}
{"QUERY_SMILES": "O=C(NO)c1ccc(C(F)(F)F)c(NC(=O)c2ccccc2)c1", "MEASURED_TARGET": "Schistosoma mansoni", "QUANTITY": "Activity", "MEASUREMENT_UNIT": "%", "NUMERIC_RESULT": 99.9}
{"QUERY_SMILES": "COc1ccc(C(=O)NO)cc1NC(=O)c1ccccc1Cl", "MEASURED_TARGET": "Schistosoma mansoni", "QUANTITY": "Activity", "MEASUREMENT_UNIT": "%", "NUMERIC_RESULT": 89.5}

---

Tested on: Schistosoma mansoni
Experiment: Antiparasitic activity against schistosomula stage of Schistosoma mansoni assessed as parasite viability at 10 uM after 48 hrs by Alamar Blue assay relative to control
Assay type: functional

{"COMPOUND": "O=C(NO)c1ccc2ccccc2n1", "Activity": "95.6%"}
{"COMPOUND": "COc1ccc(C(=O)Nc2cc(C(=O)NO)ccc2Cl)cc1", "Activity": "63.2%"}
{"COMPOUND": "O=C(C1CCCCC1)N1CC(=O)N2CCc3ccccc3C2C1 (stereo unspecified) [PRAZIQUANTEL]", "Activity": "92%"}
{"COMPOUND": "O=C(NO)c1cccc(N(Cc2ccccc2)Cc2ccccc2)c1", "Activity": "77.9%"}
{"COMPOUND": "O=C(NO)c1ccc(Cl)c(NC(=O)c2ccc(Cl)cc2Cl)c1", "Activity": "72.5%"}
{"COMPOUND": "COc1ccc(C(=O)NO)cc1NC(=O)c1cccc(-c2ccccc2)c1", "Activity": "58.8%"}

---

Each entry below lists one item and its recorded IC50 value.
Molecular target: Histone deacetylase 1 (Homo sapiens, UniProt Q13547)
Sequence (Q13547 whole entry): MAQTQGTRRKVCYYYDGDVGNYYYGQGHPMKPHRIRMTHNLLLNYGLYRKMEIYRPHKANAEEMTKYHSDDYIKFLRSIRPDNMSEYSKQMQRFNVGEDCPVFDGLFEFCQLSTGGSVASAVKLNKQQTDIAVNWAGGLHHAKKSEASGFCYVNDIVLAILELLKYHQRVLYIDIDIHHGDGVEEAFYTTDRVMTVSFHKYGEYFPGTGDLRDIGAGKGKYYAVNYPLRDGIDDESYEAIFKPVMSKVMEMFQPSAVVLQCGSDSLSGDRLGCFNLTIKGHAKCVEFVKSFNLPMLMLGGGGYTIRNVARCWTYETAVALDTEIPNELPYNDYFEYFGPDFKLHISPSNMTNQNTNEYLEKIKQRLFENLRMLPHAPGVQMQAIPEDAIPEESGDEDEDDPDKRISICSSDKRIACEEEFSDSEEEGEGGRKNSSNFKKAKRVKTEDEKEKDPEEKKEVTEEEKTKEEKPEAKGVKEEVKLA
Assay: Inhibition of recombinant human HDAC1 using Cbz-(Ac)Lys-AMC as substrate preincubated for 90 mins followed by trypsin addition measured after 20 mins by fluorescence assay
Settings: read-out: IC50

{"COMPOUND": "O=C(NO)c1ccc(Cl)c(NC(=O)c2cccc(OCc3ccccc3)c2)c1", "MEASUREMENT_UNIT": "µM", "IC50": 9.4}
{"COMPOUND": "COc1ccc(C(=O)NO)cc1NC(=O)Cc1ccccc1", "MEASUREMENT_UNIT": "µM", "IC50": 28.9}
{"COMPOUND": "O=C(NO)c1ccc(Cl)c(NC(=O)c2ccc(Cl)cc2)c1", "MEASUREMENT_UNIT": "µM", "IC50": 3.8}
{"COMPOUND": "CCOc1ccc(C(=O)NO)cc1NC(=O)c1ccccc1", "MEASUREMENT_UNIT": "µM", "IC50": 4.6}
{"COMPOUND": "O=C(NO)c1ccc(Cl)c(NC(=O)c2ccc(Oc3ccccc3)cc2)c1", "MEASUREMENT_UNIT": "µM", "IC50": 8.5}
{"COMPOUND": "O=C(NO)c1ccc(Cl)c(NC(=O)c2ccccc2)c1", "MEASUREMENT_UNIT": "µM", "IC50": 11.6}
{"COMPOUND": "O=C(NO)c1cccc(NC2CCCCC2)c1", "MEASUREMENT_UNIT": "µM", "IC50": 130}
{"COMPOUND": "COc1ccc(C(=O)Nc2cc(C(=O)NO)ccc2Cl)cc1", "MEASUREMENT_UNIT": "µM", "IC50": 4.1}
{"COMPOUND": "O=C1CCSc2ccc(C(=O)NO)cc2N1", "MEASUREMENT_UNIT": "µM", "IC50": 9.8}
{"COMPOUND": "CCOc1ccc(C(=O)Nc2cc(C(=O)NO)ccc2OC)cc1", "MEASUREMENT_UNIT": "µM", "IC50": 4.4}
{"COMPOUND": "O=C(NO)c1ccc(F)c(NC(=O)c2ccccc2)c1", "MEASUREMENT_UNIT": "µM", "IC50": 22.3}
{"COMPOUND": "COc1ccc(C(=O)NO)cc1NC(=O)c1ccc(Cl)cc1Cl", "MEASUREMENT_UNIT": "µM", "IC50": 13}
{"COMPOUND": "O=C(NO)c1ccc(C(F)(F)F)c(NC(=O)c2ccccc2)c1", "MEASUREMENT_UNIT": "µM", "IC50": 2.4}
{"COMPOUND": "COc1ccc(C(=O)NO)cc1NC(=O)c1ccccc1Cl", "MEASUREMENT_UNIT": "µM", "IC50": 9.6}
{"COMPOUND": "O=C(NO)c1cccc(N(Cc2ccccc2)Cc2ccccc2)c1", "MEASUREMENT_UNIT": "µM", "IC50": 42.3}
{"COMPOUND": "CC1Sc2ccc(C(=O)NO)cc2NC1=O (configuration not stated)", "MEASUREMENT_UNIT": "µM", "IC50": 27.5}
{"COMPOUND": "CC(C)Oc1ccc(C(=O)NO)cc1NC(=O)c1ccccc1", "MEASUREMENT_UNIT": "µM", "IC50": 3.6}
{"COMPOUND": "O=C(NO)c1ccc(Cl)c(NC(=O)c2ccc(Cl)cc2Cl)c1", "MEASUREMENT_UNIT": "µM", "IC50": 31.6}
{"COMPOUND": "O=C(NO)c1ccc(Cl)c(NC(=O)c2cccc(Oc3ccccc3)c2)c1", "MEASUREMENT_UNIT": "µM", "IC50": 6.4}
{"COMPOUND": "COc1ccc(C(=O)NO)cc1NC(=O)c1ccccc1", "MEASUREMENT_UNIT": "µM", "IC50": 2.3}
{"COMPOUND": "COc1ccc(C(=O)Nc2cc(C(=O)NO)ccc2OC)cc1", "MEASUREMENT_UNIT": "µM", "IC50": 2.6}
{"COMPOUND": "Cc1ccc(C(=O)NO)cc1NC(=O)c1ccccc1", "MEASUREMENT_UNIT": "µM", "IC50": 8.4}
{"COMPOUND": "CCOc1ccc(C(=O)NO)cc1NC(=O)c1ccc(-c2ccccc2)cc1", "MEASUREMENT_UNIT": "µM", "IC50": 2.08}
{"COMPOUND": "Cc1ccc(C(=O)NO)cc1NC(=O)c1ccc2ccccc2n1", "MEASUREMENT_UNIT": "µM", "IC50": 2.7}
{"COMPOUND": "COc1ccc(C(=O)NO)cc1S(=O)(=O)Nc1ccc(C)cc1", "MEASUREMENT_UNIT": "µM", "IC50": 20}
{"COMPOUND": "COc1ccc(C(=O)NO)cc1NC(=O)c1ccc(Cl)cc1", "MEASUREMENT_UNIT": "µM", "IC50": 2.9}
{"COMPOUND": "O=C(NO)c1ccc(Br)c(NC(=O)c2ccccc2)c1", "MEASUREMENT_UNIT": "µM", "IC50": 7.4}
